Quick record: MIC, Haemophilus influenzae ATCC 49247.

Example results:
[[record]]
molecule = "Cc1c(-c2cnc(N)nc2)ccc2c3oc(CN)nc3c(=O)n(C3CC3)c12"
reportedmeasurement = "< 1 µg/mL"

[[record]]
molecule = "Cc1c(-c2cc(F)c(C(C)O)cc2F)ccc2c3ocnc3c(=O)n(C3CC3)c12 (centres unmarked)"
reportedmeasurement = "1 to 10 µg/mL"

[[record]]
molecule = "CN(C)C(=O)c1ccc(-c2cc3c(cc2F)c2ocnc2c(=O)n3C2CC2)cc1"
reportedmeasurement = "10 to 100 µg/mL"

[[record]]
molecule = "Nc1cc(F)c(-c2cc3c(cc2F)c2ocnc2c(=O)n3C2CC2)cc1F"
reportedmeasurement = "< 1 µg/mL"

[[record]]
molecule = "CC(=O)c1cc(F)c(-c2cc3c(cc2F)c2oc(C)nc2c(=O)n3C2CC2)cc1F"
reportedmeasurement = "> 100 µg/mL"

[[record]]
molecule = "Cc1c(-c2ccccc2)ccc2c3ocnc3c(=O)n(C3CC3)c12"
reportedmeasurement = "10 to 100 µg/mL"

[[record]]
molecule = "Cc1onc(-c2ccccc2)c1C(=O)N[C@@H]1C(=O)N2[C@@H]1SC(C)(C)[C@@H]2C(=O)O [Oxacillin, reference compound]"
reportedmeasurement = "> 100 µg/mL"

[[record]]
molecule = "Cc1nc2c(=O)n(C3CC3)c3c(C)c(-c4cc(F)c(C#N)cc4F)ccc3c2o1"
reportedmeasurement = "1 to 10 µg/mL"


Log: Haemophilus influenzae ATCC 49247, molecule Cc1c(-c2ccc(O)cn2)ccc2c3ocnc3c(=O)n(C3CC3)c12 , MIC = 10 to 100 µg/mL

Log: Haemophilus influenzae ATCC 49247, molecule COc1ccc(-c2cc3c(cc2F)c2ocnc2c(=O)n3C2CC2)cc1 , MIC = > 100 µg/mL

Log: Haemophilus influenzae ATCC 49247, molecule Cc1nc2c(=O)n(C3CC3)c3c(C)c(-c4ccc5cn[nH]c5c4)ccc3c2o1 , MIC = 1 to 10 µg/mL

Log: Haemophilus influenzae ATCC 49247, molecule Cc1c(-c2ccc3[nH]ncc3c2)ccc2c3scnc3c(=O)n(C3CC3)c12 , MIC = 1 to 10 µg/mL

Log: Haemophilus influenzae ATCC 49247, molecule Cc1nc2c(=O)n(C3CC3)c3cc(N4CCCC(N)C4)c(F)cc3c2o1 (centres unmarked) , MIC = 1 to 10 µg/mL

Log: Haemophilus influenzae ATCC 49247, molecule Cc1nc2c(=O)n(C3CC3)c3c(C)c(-c4cnn(C5CN(C(=O)OC(C)(C)C)C5)c4)ccc3c2o1 , MIC = 10 to 100 µg/mL

Log: Haemophilus influenzae ATCC 49247, molecule Cc1nc2c(=O)n(C3CC3)c3c(C)c(-c4ccc(CN)cc4)ccc3c2o1 , MIC = 1 to 10 µg/mL

Log: Haemophilus influenzae ATCC 49247, molecule Cc1nc2c(=O)n(C3CC3)c3c(C)c(-c4ccc(S(N)(=O)=O)cc4)ccc3c2o1 , MIC = < 1 µg/mL

Log: Haemophilus influenzae ATCC 49247, molecule Cc1nc2c(=O)n(C3CC3)c3cc(-c4ccncc4F)c(F)cc3c2o1 , MIC = 1 to 10 µg/mL

###

- Test system: S. aureus NRS482 MRSA FQ resistant
- experimentDescription: MIC, S. aureus NRS482
- Assay type: cell-based
- experimentalSetup: Staphylococcus aureus; Table 2
Reported MIC values follow for various compounds

Example results:
[[record]]
compound = "Cc1c(-c2cc(F)c(N)cc2F)ccc2c3oc(CN)nc3c(=O)n(C3CC3)c12"
reportedmeasurement = "< 1 µg/mL"

[[record]]
compound = "Cc1nc2c(=O)n(C3CC3)c3c(C)c(-c4ccc(CN)c(F)c4)ccc3c2o1"
reportedmeasurement = "1 to 10 µg/mL"

[[record]]
compound = "Nc1cc(F)c(-c2cc3c(cc2F)c2ocnc2c(=O)n3C2CC2)cc1F"
reportedmeasurement = "1 to 10 µg/mL"


Form field MIC, entry Cc1c(-c2cnc3[nH]nc(N)c3c2)ccc2c3ocnc3c(=O)n(C3CC3)c12 : < 1 µg/mL

Form field MIC, entry Cc1c(-c2ccc3[nH]cnc3c2)ccc2c3ocnc3c(=O)n(C3CC3)c12 : < 1 µg/mL

Form field MIC, entry Cc1nc2c(=O)n(C3CC3)c3c(C)c(-c4ccc(C(N)=O)cc4)ccc3c2o1 : 1 to 10 µg/mL

Form field MIC, entry Cc1c(-c2cc(F)c(N)cc2F)ccc2c3oc(CN(C)C)nc3c(=O)n(C3CC3)c12 : 1 to 10 µg/mL

Form field MIC, entry Cc1nc2c(=O)n3c4c(c(N5CCC(CN)C5)c(F)cc4c2o1)OC[C@@H]3C (some centres unmarked) : 1 to 10 µg/mL

Form field MIC, entry Cc1nc2c(=O)n(C3CC3)c3cc(N4CC[C@H](CN)C4)c(F)cc3c2o1 : 1 to 10 µg/mL

Form field MIC, entry Cc1c(-c2cnc3[nH]ncc3c2)ccc2c3ocnc3c(=O)n(C3CC3)c12 : < 1 µg/mL

Form field MIC, entry Cc1c(-c2cc(F)c(N)cc2F)ccc2c3scnc3c(=O)n(C3CC3)c12 : < 1 µg/mL

###

Reported MIC values follow for various molecules
- System: Staphylococcus aureus ATCC 29213
- experimentDescription: MIC, broth microdilution, S. aureus ATCC 29213
- Format: cell-based
- experimentalSetup: ATCC29213, Table 1, wild type strain, read-out: MIC S. aureus ATCC 29213

Example results:
[[record]]
molecule = "Cc1c(-c2ccc(O)cn2)ccc2c3ocnc3c(=O)n(C3CC3)c12 [Compound 45]"
reportedmeasurement = "10 to 100 µg/mL"

[[record]]
molecule = "Cc1nc2c(=O)n(C3CC3)c3c(C)c(-c4ccc5cn[nH]c5c4)ccc3c2o1 [Compound 27]"
reportedmeasurement = "< 1 µg/mL"

[[record]]
molecule = "Cc1c(-c2ccc(N)cc2F)ccc2c3ocnc3c(=O)n(C3CC3)c12 [Compound 5]"
reportedmeasurement = "< 1 µg/mL"


# context switch: different molecule, same MIC
Form field MIC, entry Cc1c(-c2cc(F)c(N)cc2F)ccc2c3scnc3c(=O)n(C3CC3)c12 [Compound 108] : < 1 µg/mL

###

- Tested on: Staphylococcus aureus ATCC 29213
- experimentDescription: MIC, broth microdilution, S. aureus ATCC 29213
- Format: cell-based
- experimentalSetup: ATCC 29213 / MSSA, Table 2, read-out: MIC S. aureus (MSSA) ATCC 29213 CLSI control strain
valueKind: MIC

Form field MIC, entry Cc1nc2c(=O)n(C3CC3)c3c(C)c(-c4cn[nH]c4)ccc3c2o1 : 1 to 10 µg/mL

Form field MIC, entry Cc1c(-c2ccc3[nH]ncc3c2)ccc2c3ocnc3c(=O)n(C3CC3)c12 : < 1 µg/mL

Form field MIC, entry Cc1nc2c(=O)n3c4c(c(N5CCN(C)CC5)c(F)cc4c2o1)OC[C@@H]3C : 10 to 100 µg/mL

Form field MIC, entry Cc1c(-c2cc(F)c(CO)cc2F)ccc2c3ocnc3c(=O)n(C3CC3)c12 : < 1 µg/mL

Form field MIC, entry Cc1nc2c(=O)n(C3CC3)c3c(C)c(-c4cc(F)c(N)cc4F)ccc3c2o1 : < 1 µg/mL

Form field MIC, entry CCn1c(=O)c2ncoc2c2cc(F)c(-c3ccc(N)c(F)c3)c(C)c21 : 10 to 100 µg/mL

Form field MIC, entry Cc1nc2c(=O)n(C3CC3)c3cc(-c4ccncc4)c(F)cc3c2o1 : 1 to 10 µg/mL

Form field MIC, entry Cc1nc2c(=O)n(C3CC3)c3cc(-c4ccc(CN)c(F)c4)c(F)cc3c2o1 : < 1 µg/mL

Form field MIC, entry Cc1nc2c(=O)n(C3CC3)c3cc(N4CC[C@@H](C(C)(C)N)C4)c(F)cc3c2o1 : 1 to 10 µg/mL

###

Reported MIC values follow for various compounds
- System: Staphylococcus aureus ATCC 29213
- experimentDescription: MIC, broth microdilution, S. aureus ATCC 29213
- Assay type: cell-based
- experimentalSetup: ATCC 29213 / MSSA, Table 2, read-out: MIC S. aureus (MSSA) ATCC 29213 CLSI control strain

[[record]]
compound = "Nc1cc(-c2nc3c(cc2F)c2ocnc2c(=O)n3C2CC2)c(F)cc1F [Compound 85]"
reportedmeasurement = "10 to 100 µg/mL"

[[record]]
compound = "C[C@H]1COc2c(-c3cnc(N)nc3)ccc3c4ocnc4c(=O)n1c23 [Compound 94]"
reportedmeasurement = "1 to 10 µg/mL"

[[record]]
compound = "Cc1nc2c(=O)n(C3CC3)c3c(C)c(-c4ccc5[nH]ncc5c4)ccc3c2o1 [Compound 10]"
reportedmeasurement = "< 1 µg/mL"

[[record]]
compound = "Cc1c(-c2cc(F)c(N)cc2F)ccc2c3ocnc3c(=O)n(C3CC3)c12 [Compound 1]"
reportedmeasurement = "< 1 µg/mL"

[[record]]
compound = "Cc1c(-c2ccc(NCc3ccccc3)nc2)ccc2c3ocnc3c(=O)n(C3CC3)c12 [Compound 48]"
reportedmeasurement = "1 to 10 µg/mL"

[[record]]
compound = "Nc1ccc(-c2cc3c(cc2F)c2ocnc2c(=O)n3C2CC2)cn1 [Compound 70]"
reportedmeasurement = "10 to 100 µg/mL"


# context switch: different compound, same MIC
Form field MIC, entry Cc1c(-c2ccc(C(=O)O)cc2)ccc2c3oc(CN)nc3c(=O)n(C3CC3)c12 [Compound 102] : 1 to 10 µg/mL
